- System: HOP-62 complex spheroids with HUVEC/MSC, viability
- assay explanation: Anticancer human tumor HOP-62 cell line growth inhibition [RAS];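 note: spheroids exposed to agents for seven days before readout; 100% = DMSO vehicle control viability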
- assay conditions: second compound 0.316 µM; first compound 10 µM; hits give low values

molecule | viability, T/C [%]
CC(Nc1ccc2c(c1)OCCn1cc(N3C(=O)OCC3C(F)F)nc1-2)C(N)=O (centres undefined) + C#Cc1c(F)ccc2cc(O)cc(-c3ncc4c(N5CC6CCC(C5)N6)nc(OCC56CCCN5CC(F)C6)nc4c3F)c12 | 31.4
NC1c2ccccc2OC12CCN(c1cnc3c(N4CCCc5ncccc54)n[nH]c3n1)CC2 (centres undefined) + C=CC(=O)N1CCN(c2nc(OCC3CCCN3C)nc3c(F)c(-c4nc(N)cc(C)c4C(F)(F)F)c(Cl)cc23)C(C)C1 | 8.51
Cc1nc(N2CCC3(CC2)COC(C)C3N)c(CO)nc1Sc1ccnc(N)c1Cl (centres undefined) + C#Cc1c(F)ccc2cc(O)cc(-c3ncc4c(N5CC6CCC(C5)N6)nc(OCC56CCCN5CC(F)C6)nc4c3F)c12 | 34.5
CC1(O)CCCC1n1c(=O)c(C(F)F)cc2cnc(NC3CCN(S(C)(=O)=O)CC3)nc21 (centres undefined) + C=CC(=O)N1CCN(c2nc(OCC3CCCN3C)nc3c(F)c(-c4nc(N)cc(C)c4C(F)(F)F)c(Cl)cc23)C(C)C1 | 0.96
CC(C)NCC(C(=O)N1CCN(c2ncnc3c2C(C)CC3O)CC1)c1ccc(Cl)cc1 (centres undefined) + C=CC(=O)N1CCN(c2nc(OCC3CCCN3C)nc3c(F)c(-c4nc(N)cc(C)c4C(F)(F)F)c(Cl)cc23)C(C)C1 | 12.6
CCC(CC)c1cc(NC2CCC(N)C2)n2nccc2n1 (centres undefined) + C=CC(=O)N1CCN(c2nc(OCC3CCCN3C)nc3c(F)c(-c4nc(N)cc(C)c4C(F)(F)F)c(Cl)cc23)C(C)C1 | 0.5
CC1(O)CCCC1n1c(=O)c(C(F)F)cc2cnc(NC3CCN(S(C)(=O)=O)CC3)nc21 (centres undefined) + C#Cc1c(F)ccc2cc(O)cc(-c3ncc4c(N5CC6CCC(C5)N6)nc(OCC56CCCN5CC(F)C6)nc4c3F)c12 | 1.44
CC(=O)OC12COC1CC(O)C1(C)C(=O)C(O)C3=C(C)C(OC(=O)C(O)C(NC(=O)OC(C)(C)C)c4ccccc4)CC(O)(C(OC(=O)c4ccccc4)C21)C3(C)C (centres undefined) + C#Cc1c(F)ccc2cc(O)cc(-c3ncc4c(N5CC6CCC(C5)N6)nc(OCC56CCCN5CC(F)C6)nc4c3F)c12 | 23.5
CC(=O)OC12COC1CC(O)C1(C)C(=O)C(O)C3=C(C)C(OC(=O)C(O)C(NC(=O)OC(C)(C)C)c4ccccc4)CC(O)(C(OC(=O)c4ccccc4)C21)C3(C)C (centres undefined) + C=CC(=O)N1CCN(c2nc(OCC3CCCN3C)nc3c(F)c(-c4nc(N)cc(C)c4C(F)(F)F)c(Cl)cc23)C(C)C1 | 20.1
